target: GABBR1 (Homo sapiens, UniProt Q9UBS5); construct: purchased Promega (in-house HiBiT-GPCR construct library, NanoBRET); experiment: NanoBRET screen HiBiT-GABBR1 in HEK293; assay type: binding; details: GABBR1; tracer 0.1μM
Sequence (Q9UBS5 15-961 limits assumed): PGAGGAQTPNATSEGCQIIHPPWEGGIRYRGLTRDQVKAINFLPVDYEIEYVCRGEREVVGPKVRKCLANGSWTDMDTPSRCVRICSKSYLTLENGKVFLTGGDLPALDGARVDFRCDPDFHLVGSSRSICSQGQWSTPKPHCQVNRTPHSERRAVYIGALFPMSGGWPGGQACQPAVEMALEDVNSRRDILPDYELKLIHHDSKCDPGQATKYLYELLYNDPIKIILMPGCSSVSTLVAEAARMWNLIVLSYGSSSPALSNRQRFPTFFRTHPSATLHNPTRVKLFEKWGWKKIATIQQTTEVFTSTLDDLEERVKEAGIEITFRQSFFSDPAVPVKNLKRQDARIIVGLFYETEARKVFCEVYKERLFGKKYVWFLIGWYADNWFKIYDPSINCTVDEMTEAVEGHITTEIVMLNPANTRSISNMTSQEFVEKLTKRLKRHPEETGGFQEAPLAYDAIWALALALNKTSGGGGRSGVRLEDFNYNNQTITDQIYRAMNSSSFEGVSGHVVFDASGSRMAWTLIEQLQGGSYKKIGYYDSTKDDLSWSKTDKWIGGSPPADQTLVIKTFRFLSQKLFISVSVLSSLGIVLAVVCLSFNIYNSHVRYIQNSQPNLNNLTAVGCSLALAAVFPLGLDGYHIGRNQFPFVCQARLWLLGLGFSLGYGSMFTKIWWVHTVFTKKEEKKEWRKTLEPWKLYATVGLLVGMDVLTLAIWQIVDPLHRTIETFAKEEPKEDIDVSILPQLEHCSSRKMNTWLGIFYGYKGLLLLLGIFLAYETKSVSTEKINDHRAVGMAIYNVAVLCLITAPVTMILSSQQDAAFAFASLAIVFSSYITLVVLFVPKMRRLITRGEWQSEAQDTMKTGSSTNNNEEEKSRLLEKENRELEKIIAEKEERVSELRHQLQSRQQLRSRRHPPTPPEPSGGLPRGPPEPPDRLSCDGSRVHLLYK
reported_metric: NanoBRET Fold Response
// no unit string in output, number only

Previously resolved entries follow.
INSERT INTO measurements (structure_string, assayed_system, recorded_result) VALUES
  ('COc1ccccc1N1CCN(CCCCN2C(=O)c3ccc(CNC(=O)CCOCCOCCOCCOCCNC(=O)CCc4ccc5n4[B-](F)(F)[N+]4=C(c6ccc[nH]6)C=CC4=C5)cc3C2=O)CC1', 'GABBR1 (Homo sapiens, UniProt Q9UBS5)', 0.88),
  ('O=C(CCOCCOCCOCCOCCNC(=O)CCc1ccc2n1[B-](F)(F)[N+]1=C(c3ccc[nH]3)C=CC1=C2)NCCCN1CCN(C2=Nc3ccccc3Oc3ccc(Cl)cc32)CC1', 'GABBR1 (Homo sapiens, UniProt Q9UBS5)', 1.03);

Continue with the next compound.
Enquiry: Tell me its NanoBRET Fold Response given "CC(C)N(CC[C@H](c1ccccc1)c1cc(CCNC(=O)CCOCCOCCOCCOCCNC(=O)CCc2ccc3n2[B-](F)(F)[N+]2=C(c4ccc[nH]4)C=CC2=C3)ccc1O)C(C)C" as the entry.
Return: 1.32
